// data source = ChEMBL document CHEMBL4033735

- TESTED_SYSTEM: Atrial natriuretic peptide receptor 3 (Homo sapiens, UniProt P17342)
- Sequence (P17342 whole entry, the tested form may be a part): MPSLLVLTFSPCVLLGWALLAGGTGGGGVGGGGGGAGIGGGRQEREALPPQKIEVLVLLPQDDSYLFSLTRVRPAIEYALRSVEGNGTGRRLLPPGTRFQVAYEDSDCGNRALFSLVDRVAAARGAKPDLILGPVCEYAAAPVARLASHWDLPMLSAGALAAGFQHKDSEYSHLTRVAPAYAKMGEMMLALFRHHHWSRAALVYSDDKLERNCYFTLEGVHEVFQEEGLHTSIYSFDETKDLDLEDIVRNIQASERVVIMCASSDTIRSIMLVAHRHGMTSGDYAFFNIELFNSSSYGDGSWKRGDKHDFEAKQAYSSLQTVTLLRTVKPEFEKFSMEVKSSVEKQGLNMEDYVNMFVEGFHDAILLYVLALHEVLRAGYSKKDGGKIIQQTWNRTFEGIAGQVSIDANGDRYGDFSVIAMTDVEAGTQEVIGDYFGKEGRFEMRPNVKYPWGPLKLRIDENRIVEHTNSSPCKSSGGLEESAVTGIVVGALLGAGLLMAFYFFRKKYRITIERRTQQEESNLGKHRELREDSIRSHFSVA
- MEASUREMENT_DESCRIPTION: Displacement of [125I]-human ANP from His-tagged and Fc fragment containing human NPR-3 extracellular domain expressed in FreeStyle 293 cells incubated for 2 hrs by top count method
Square brackets hold non-standard residues; d marks the D form. Peptide text beside a SMILES is read from it. Cha = N[C@@H](CC1CCCCC1)C(=O)O
READOUT_TYPE: IC50

Examples with their reported IC50 follow.
>  <COMPOUND>
CC[C@H](C)[C@H](NC(=O)[C@H](CCCNC(=N)N)NC(=O)[C@H](CC(=O)O)NC(=O)[C@@H](NC(=O)[C@H](CCCNC(=N)N)NC(=O)CNC(=O)CNC(=O)[C@H](CC1CCCCC1)NC(=O)CNC(=O)[C@H](CO)NC(=O)[C@H](Cc1ccccc1)NC(=O)[C@@H](N)CO)[C@@H](C)CC)C(=O)NCC(N)=O (H-SFSG[Cha]GGRIDRIG-NH2)

>  <TESTED_SYSTEM>
Atrial natriuretic peptide receptor 3 (Homo sapiens, UniProt P17342)

>  <ASSAY_VALUE>
520 pM

$$$$
>  <COMPOUND>
CC[C@H](C)[C@H](NC(=O)[C@H](CCCNC(=N)N)NC(=O)[C@H](CC(=O)O)NC(=O)[C@@H](NC(=O)[C@H](CCCNC(=N)N)NC(=O)CNC(=O)CNC(=O)[C@H](CC1CCCCC1)NC(=O)[C@H]1CCCN1C(=O)[C@H](CO)NC(=O)[C@H](N)Cc1ccccc1)[C@@H](C)CC)C(=O)NCC(N)=O

>  <TESTED_SYSTEM>
Atrial natriuretic peptide receptor 3 (Homo sapiens, UniProt P17342)

>  <ASSAY_VALUE>
130 pM

$$$$

Switching to the query record.
Hey, Atrial natriuretic peptide receptor 3 (Homo sapiens, UniProt P17342) data for CC[C@H](C)[C@H](NC(=O)[C@H](CCCNC(=N)N)NC(=O)[C@H](CC(=O)O)NC(=O)[C@@H](NC(=O)[C@H](CCCNC(=N)N)NC(=O)CNC(=O)CNC(=O)[C@H](CC1CCCCC1)NC(=O)CN)[C@@H](C)CC)C(=O)NCC(N)=O (H-G[Cha]GGRIDRIG-NH2) : IC50 came out at 13000 pM

* * *

- TESTED_SYSTEM: Atrial natriuretic peptide receptor 3 (Homo sapiens, UniProt P17342)
- MEASUREMENT_DESCRIPTION: Displacement of [125I]-human ANP from His-tagged and Fc fragment containing human NPR-3 extracellular domain expressed in FreeStyle 293 cells incubated for 2 hrs by top count method
Bridge positions count the residues as written; N and C are the ends. Square brackets hold non-standard residues; d marks the D form. Peptide text beside a SMILES is read from it. Cha = N[C@@H](CC1CCCCC1)C(=O)O
READOUT_TYPE: pIC50
Answers are plain numbers, as −log10 of the molar value.

Examples with their reported pIC50 follow.
>  <MOLECULE>
CC[C@H](C)[C@H](NC(=O)[C@H](CCCNC(=N)N)NC(=O)[C@H](CC(=O)O)NC(=O)[C@@H](NC(=O)[C@H](CCCNC(=N)N)NC(=O)CNC(=O)CNC(=O)[C@H](CC1CCCCC1)NC(C)=O)[C@@H](C)CC)C(=O)NCC(N)=O (Ac-[Cha]GGRIDRIG-NH2)

>  <ASSAY_VALUE>
7.27

$$$$
>  <MOLECULE>
CC[C@H](C)[C@H](NC(=O)[C@H](CCCNC(=N)N)NC(=O)[C@H](CC(=O)O)NC(=O)[C@@H](NC(=O)[C@H](CCCNC(=N)N)NC(=O)CNC(=O)[C@@H](C)NC(=O)[C@H](CC1CCCCC1)NC(=O)CNC(=O)[C@H](CO)NC(=O)[C@H](N)Cc1ccccc1)[C@@H](C)CC)C(=O)NCC(N)=O

>  <ASSAY_VALUE>
9.44

$$$$
>  <MOLECULE>
CC[C@H](C)[C@H](NC(=O)[C@H](CCCNC(=N)NC)NC(=O)[C@H](CC(=O)O)NC(=O)[C@@H](NC(=O)[C@@H]1C[C@@H](O)CN1C(=O)CNC(=O)[C@@H](CO)NC(=O)[C@H](CC1CCCCC1)NC(=O)[C@H]1C[C@H](O)CN1C(=O)[C@H](CO)NC(=O)[C@@H](Cc1ccccc1)NC(=O)CO)[C@@H](C)CC)C(=O)NC

>  <ASSAY_VALUE>
10.10

$$$$
>  <MOLECULE>
CC[C@H](C)[C@@H]1NC(=O)[C@H](CCCNC(=N)N)NC(=O)[C@H](CC(=O)O)NC(=O)[C@H]([C@@H](C)CC)NC(=O)[C@H](CCCNC(=N)N)NC(=O)CNC(=O)CNC(=O)[C@H](Cc2ccccc2)NC(=O)[C@@H](NC(=O)[C@H](CO)NC(=O)[C@H](CO)NC(=O)[C@@H](N)CCCNC(=N)N)CSSC[C@@H](C(=O)O)NC(=O)[C@H](C)NC(=O)CNC1=O (H-RSSCFGGRIDRIGAC-OH; disulfide 4-15)

>  <ASSAY_VALUE>
9.29

$$$$
>  <MOLECULE>
CC[C@H](C)[C@H](NC(=O)[C@H](CCCNC(=N)N)NC(=O)[C@H](CC(=O)O)NC(=O)[C@@H](NC(=O)[C@@H]1CCCN1C(=O)CNC(=O)CNC(=O)[C@H](CC1CCCCC1)NC(=O)CNC(=O)[C@H](CO)NC(=O)[C@H](N)Cc1ccccc1)[C@@H](C)CC)C(=O)NCC(N)=O

>  <ASSAY_VALUE>
9.92

$$$$

Please go through the list and note pIC50 for each molecule.
1. CC[C@H](C)[C@H](NC(=O)[C@H](CCCNC(=N)N)NC(=O)[C@H](CC(=O)O)NC(=O)[C@@H](NC(=O)[C@@H]1CCCN1C(=O)CNC(=O)[C@@H](C)NC(=O)[C@H](CC1CCCCC1)NC(=O)[C@H]1CCCN1C(=O)[C@H](CO)NC(=O)[C@@H](Cc1ccccc1)NC(C)=O)[C@@H](C)CC)C(=O)NCC(N)=O
2. CC[C@H](C)[C@H](NC(=O)[C@H](CCCNC(=N)N)NC(=O)[C@H](CC(=O)O)NC(=O)[C@@H](NC(=O)[C@H](CCCNC(=N)N)NC(=O)CNC(=O)CNC(=O)[C@H](CC1CCCCC1)NC(=O)[C@@H](N)CS)[C@@H](C)CC)C(=O)NCC(N)=O (H-C[Cha]GGRIDRIG-NH2)

Data returned:
9.72
8.82
